Reference source for all entries: patent US20250009737A1

target: Pgp (Homo sapiens); experiment: Pgp inhibition, bidirectional transport in Pgp-expressed MDCKII monolayers; assay type: in vitro ADME; set-up: expressed in transfected cells; host or cells: MDCKII; conditions: Pgp; Monolayers; substrate Digoxin (5 μM)
Sequence (P08183 whole entry): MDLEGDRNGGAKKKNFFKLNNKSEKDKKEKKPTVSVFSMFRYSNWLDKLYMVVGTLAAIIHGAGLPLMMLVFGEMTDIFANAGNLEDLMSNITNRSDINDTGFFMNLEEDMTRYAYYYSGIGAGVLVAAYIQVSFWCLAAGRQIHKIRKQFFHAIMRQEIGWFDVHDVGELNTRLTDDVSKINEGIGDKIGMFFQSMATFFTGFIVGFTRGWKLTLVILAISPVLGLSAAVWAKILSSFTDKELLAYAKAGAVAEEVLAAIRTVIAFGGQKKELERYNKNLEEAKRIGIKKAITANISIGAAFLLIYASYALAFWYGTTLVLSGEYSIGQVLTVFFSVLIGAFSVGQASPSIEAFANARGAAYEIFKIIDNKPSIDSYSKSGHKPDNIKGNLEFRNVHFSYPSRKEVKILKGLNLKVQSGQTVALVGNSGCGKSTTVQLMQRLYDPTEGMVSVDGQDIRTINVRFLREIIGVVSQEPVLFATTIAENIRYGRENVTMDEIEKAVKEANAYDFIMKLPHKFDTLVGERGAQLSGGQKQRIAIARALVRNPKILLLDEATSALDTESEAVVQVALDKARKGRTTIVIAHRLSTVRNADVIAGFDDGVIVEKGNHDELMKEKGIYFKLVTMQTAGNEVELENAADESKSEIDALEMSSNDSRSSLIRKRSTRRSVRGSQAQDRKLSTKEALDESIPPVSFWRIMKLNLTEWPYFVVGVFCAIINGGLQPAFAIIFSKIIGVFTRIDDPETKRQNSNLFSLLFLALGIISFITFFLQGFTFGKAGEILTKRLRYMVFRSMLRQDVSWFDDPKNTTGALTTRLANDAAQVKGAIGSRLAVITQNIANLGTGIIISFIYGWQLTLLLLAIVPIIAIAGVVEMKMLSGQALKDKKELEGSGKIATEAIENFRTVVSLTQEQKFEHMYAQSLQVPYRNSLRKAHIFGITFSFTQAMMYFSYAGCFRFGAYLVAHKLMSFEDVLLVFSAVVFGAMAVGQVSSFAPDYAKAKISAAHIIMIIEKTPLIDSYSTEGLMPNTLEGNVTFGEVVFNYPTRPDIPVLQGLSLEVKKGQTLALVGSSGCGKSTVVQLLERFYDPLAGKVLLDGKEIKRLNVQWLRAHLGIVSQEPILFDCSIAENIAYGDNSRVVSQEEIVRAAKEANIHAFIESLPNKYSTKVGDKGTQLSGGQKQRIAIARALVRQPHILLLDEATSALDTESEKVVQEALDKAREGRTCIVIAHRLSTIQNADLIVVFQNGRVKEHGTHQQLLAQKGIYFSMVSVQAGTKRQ
pIC50: −log10 of the molar value.
measurement label: pIC50

Task: May I ask what pIC50 has been recorded for COc1cc(O[C@H]2C(C)(C)[C@H](NC(=O)c3ccc(N4CCC(CN5CCN(c6ccc(C(=O)N[C@H]7CCC(=O)NC7=O)c(F)c6)CC5)CC4)cc3)C2(C)C)ccc1C#N ?
Output: < 5.30
